# credit: patent US4201866A

# measurement_notes: Intravenous administration of propranolol HCl and propranolol-o-hemi-succinate HCl; plasma levels of free propranolol (Example 3)
# Format: in vivo, beagle dogs
# details: dog, plasma, iv, 20 mg, 6 hr after dosing; i.v., 20 mg propranolol HCl or equivalent; mean; read-out: Mean plasma level of free propranolol
# Protocol: Plasma was analyzed for free propranolol by a TLC fluorometric procedure. Two ml samples were mixed with 2 ml of pH 10 buffer and extracted with 25 ml of ethyl ether. A 20 ml aliquot from the ether phase was evaporated to dryness and the dry residue was dissolved in 100 μl of ethanol. […] They were then read in the fluorescence mode of a Schoeffel spectrodensitometer. The limit of reliable quantitation was 2 ng. of propranolol per ml of plasma. […]
Where a name gives a salt, the structure may show the parent alone.
assay_endpoint: concentration at 6 h (ng/mL)

[
  {
    "compound": "CC(C)NCC(O)COc1cccc2ccccc12 (stereo not shown) [propranolol HCl]",
    "measurement": 41
  }
]
